Please provide measured pIC50 for the entries that follow.
# Tested on: SW480
# Protocol Summary: Cytotoxicity against human SW480 cells after 48 hrs by MTT assay
# Condition Summary: SW480, 48 h
pIC50: −log10 of the molar value.

Compound: CCC(C)C(=O)[C@@]12C(=O)C3=C(OC(C)(C)C=C3)[C@@](CC=C(C)C)(C[C@H](CC=C(C)C)[C@@]1(C)CCC=C(C)C)C2=O (stereo partly drawn)
pIC50: < 4.70
--
Compound: CCC(C)C(=O)[C@@]12C(=O)C(CC=C(C)C)=C3O[C@@H](C(C)(C)O)C[C@]3(C[C@H](CC=C(C)C)[C@@]1(C)CCC=C(C)C)C2=O (stereo partly drawn)
pIC50: < 4.70
--
Compound: CC(C)=CCC[C@]1(C)[C@@H](CC=C(C)C)C[C@]23C[C@@H](C(C)C)OC2=C(CC=C(C)C)C(=O)[C@@]1(C(=O)C(C)C)C3=O
pIC50: < 4.70
--
Compound: CC(C)=CCC[C@]1(C)[C@@H](CC=C(C)C)C[C@]23C[C@@H](C(C)C)OC2=C(CC=C(C)C)C(=O)[C@@]1(C(=O)c1ccccc1)C3=O
pIC50: < 4.70

Provide each entry's pIC50 from the list below.
1. CC(C)=CCC[C@]1(C)[C@@H](CC=C(C)C)C[C@]23C[C@@H](C(C)(C)O)OC2=C(C[C@@H]2OC(C)(C)[C@@H](CO)C2(C)C)C(=O)[C@@]1(C(=O)c1ccccc1)C3=O
2. CC(C)=CCC[C@]1(C)[C@@H](CC=C(C)C)C[C@]23C[C@@H](C(C)(C)O)OC2=C(C[C@@H]2OC(C)(C)[C@@H](CO)C2(C)C)C(=O)[C@@]1(C(=O)C(C)C)C3=O
3. CC(C)=CCC[C@]1(C)[C@@H](CC=C(C)C)C[C@]23C[C@H](C(C)(C)O)OC2=C(CC=C(C)C)C(=O)[C@@]1(C(=O)C(C)C)C3=O
4. CC(C)=CCC[C@]1(C)[C@@H](CC=C(C)C)C[C@]23C[C@@H](C(C)(C)O)OC2=C(C[C@H]2OC(C)(C)[C@H](CO)C2(C)C)C(=O)[C@@]1(C(=O)C(C)C)C3=O

1: 5.04; 2: 4.81; 3: < 4.70; 4: 5.13

---

# Tested on: MCF7
# Protocol Summary: Cytotoxicity against human MCF7 cells after 48 hrs by MTT assay
# Condition Summary: MCF7, 48 h
pIC50: −log10 of the molar value.
Test Readout: pIC50

Guide cases for pIC50, answers given:
Compound: CC(=O)O[C@H]1C(=O)[C@@]2(C)[C@H]([C@H](OC(=O)c3ccccc3)[C@]3(O)C[C@H](OC(=O)[C@H](O)[C@@H](NC(=O)c4ccccc4)c4ccccc4)C(C)=C1C3(C)C)[C@]1(OC(C)=O)CO[C@@H]1C[C@@H]2O
pIC50: > 8.10

Compound: CC(C)=CCC[C@]1(C)[C@@H](CC=C(C)C)C[C@]23C[C@H](C(C)(C)O)OC2=C(CC=C(C)C)C(=O)[C@@]1(C(=O)C(C)C)C3=O
pIC50: < 4.70

Compound: CCC(C)C(=O)[C@@]12C(=O)C(CC=C(C)C)=C3O[C@@H](C(C)(C)O)C[C@]3(C[C@H](CC=C(C)C)[C@@]1(C)CCC=C(C)C)C2=O (some centres undefined)
pIC50: < 4.70

Compound: CC(C)=CCC[C@]1(C)[C@@H](CC=C(C)C)C[C@]23C[C@@H](C(C)C)OC2=C(CC=C(C)C)C(=O)[C@@]1(C(=O)C(C)C)C3=O
pIC50: < 4.70

Below are 4 compounds. Give each one its pIC50.
1. CC(C)=CCC[C@]1(C)[C@@H](CC=C(C)C)C[C@]23C[C@@H](C(C)(C)O)OC2=C(C[C@H]2OC(C)(C)[C@H](CO)C2(C)C)C(=O)[C@@]1(C(=O)C(C)C)C3=O
2. CC(C)=CCC[C@]1(C)[C@@H](CC=C(C)C)C[C@]23C[C@@H](C(C)(C)O)OC2=C(C[C@@H]2OC(C)(C)[C@@H](CO)C2(C)C)C(=O)[C@@]1(C(=O)c1ccccc1)C3=O
3. CCC(C)C(=O)[C@@]12C(=O)C3=C(OC(C)(C)C=C3)[C@@](CC=C(C)C)(C[C@H](CC=C(C)C)[C@@]1(C)CCC=C(C)C)C2=O (some centres undefined)
4. CC(C)=CCC[C@]1(C)[C@@H](CC=C(C)C)C[C@]23C[C@@H](C(C)C)OC2=C(CC=C(C)C)C(=O)[C@@]1(C(=O)c1ccccc1)C3=O

1. 5.03
2. < 4.70
3. < 4.70
4. < 4.70

Recorded pIC50 of CC(C)=CCC[C@]1(C)[C@@H](CC=C(C)C)C[C@]23C[C@@H](C(C)(C)O)OC2=C(C[C@@H]2OC(C)(C)[C@@H](CO)C2(C)C)C(=O)[C@@]1(C(=O)C(C)C)C3=O , please.
4.99
